This section presents binders with their documented Kd values.
- TESTED TARGET: Pin1 phosphopeptide (fluorescein-labelled) (Homo sapiens, UniProt Q13526)
- Sequence (Q13526 whole entry): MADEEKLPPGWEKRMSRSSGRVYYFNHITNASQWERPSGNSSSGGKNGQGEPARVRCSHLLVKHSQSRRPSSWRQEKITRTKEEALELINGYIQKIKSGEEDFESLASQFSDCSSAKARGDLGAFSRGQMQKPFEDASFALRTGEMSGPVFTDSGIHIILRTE
- EXPERIMENT: fluorescence anisotropy
Please reply with the bare figure in µM and do not write the unit itself.

[
  {
    "BINDER": "14-3-3γ (protein, phosphopeptide, fluorescein label, MG1 present (10 min)) VDREQLVQKARLAEQAERYDDMAAAMKNVTELNEPLSNEERNLLSVAYKNVVGARRSSWRVISSIEQKTSADGNEKKIEMVRAYREKIEKELEAVCQDVLSLLDNYLIKNCSETQYESKVFYLKMKGDYYRYLAEVATGEKRATVVESSEKAYSEAHEISKEHMQPTHPIRLGLALNYSVFYYEIQNAPEQACHLAKTAFDDAIAELDTLNEDSYKDSTLIMQLLRDNLTLWTSDQQDDDGGEGNN",
    "Kd [µM]": 5.4
  },
  {
    "BINDER": "14-3-3γ (protein, phosphopeptide, fluorescein label) VDREQLVQKARLAEQAERYDDMAAAMKNVTELNEPLSNEERNLLSVAYKNVVGARRSSWRVISSIEQKTSADGNEKKIEMVRAYREKIEKELEAVCQDVLSLLDNYLIKNCSETQYESKVFYLKMKGDYYRYLAEVATGEKRATVVESSEKAYSEAHEISKEHMQPTHPIRLGLALNYSVFYYEIQNAPEQACHLAKTAFDDAIAELDTLNEDSYKDSTLIMQLLRDNLTLWTSDQQDDDGGEGNN",
    "Kd [µM]": 30
  },
  {
    "BINDER": "14-3-3γ (protein, phosphopeptide, fluorescein label, MG1 present (2-3 h)) VDREQLVQKARLAEQAERYDDMAAAMKNVTELNEPLSNEERNLLSVAYKNVVGARRSSWRVISSIEQKTSADGNEKKIEMVRAYREKIEKELEAVCQDVLSLLDNYLIKNCSETQYESKVFYLKMKGDYYRYLAEVATGEKRATVVESSEKAYSEAHEISKEHMQPTHPIRLGLALNYSVFYYEIQNAPEQACHLAKTAFDDAIAELDTLNEDSYKDSTLIMQLLRDNLTLWTSDQQDDDGGEGNN",
    "Kd [µM]": 1.5
  }
]

Would you kindly share the measured Kd for 14-3-3γ (protein, phosphopeptide, fluorescein label, fusicoccin-A present) VDREQLVQKARLAEQAERYDDMAAAMKNVTELNEPLSNEERNLLSVAYKNVVGARRSSWRVISSIEQKTSADGNEKKIEMVRAYREKIEKELEAVCQDVLSLLDNYLIKNCSETQYESKVFYLKMKGDYYRYLAEVATGEKRATVVESSEKAYSEAHEISKEHMQPTHPIRLGLALNYSVFYYEIQNAPEQACHLAKTAFDDAIAELDTLNEDSYKDSTLIMQLLRDNLTLWTSDQQDDDGGEGNN ? 2.9
